tested on: non-small cell lung carcinoma (A549) cells; experiment: MTT proliferation assay, NSCLC; type: cell-based, Human; settings: Homo sapiens, Tumor Cell NSCLC (A549), 120 hours, read-out: Anti-proliferative IC-50
Value kind: IC50 (µM)

- CN1C[C@H](CNC(=O)OCc2ccccc2)C[C@@H]2c3cccc4c3c(cn4C)C[C@H]21 [Metergoline]: 5.4
- O=C(CCCN1CC=C(n2c(=O)[nH]c3ccccc32)CC1)c1ccc(F)cc1 [Droperidol]: 24.3
- C[n+]1cc2c3c(ccc2c2ccc4cc5c(cc4c21)OCO5)OCO3 [Sanguinarine]: 0.78
- CN(C)CCCN1c2ccccc2Sc2ccccc21 [Promazine]: 13.9
- O=C(Nc1ccc([N+](=O)[O-])cc1Cl)c1cc(Cl)ccc1O [Niclosamide]: 0.66
- CCCCCCCCNC(C)C(O)c1ccc(SC(C)C)cc1 (stereo not drawn) [Suloctidil]: 2.23

---

test system: non-small cell lung carcinoma (A549) cells; test: MTT proliferation assay, NSCLC; assay type: cell-based, Human; conditions: Homo sapiens, Tumor Cell NSCLC (A549), 120 hours, read-out: Anti-proliferative IC-50
Property: IC50; scope: individual compounds
Value kind: IC50

• CC(C)(C)c1ccc(C(O)CCCN2CCC(C(O)(c3ccccc3)c3ccccc3)CC2)cc1 (stereo not drawn) = 550 nM
• CO[C@H]1[C@H](O)[C@H](O[C@H]2CC[C@@]3(C=O)[C@H](CC[C@@H]4[C@@H]3CC[C@]3(C)[C@@H](C5=CC(=O)OC5)CC[C@]43O)C2)O[C@@H](C)[C@@H]1O [Peruvoside] = 4 nM
• C[C@H]1CC[C@]2(NC1)O[C@H]1C[C@H]3[C@@H]4CC[C@H]5C[C@@H](O[C@@H]6O[C@H](CO)[C@H](O[C@@H]7O[C@H](CO)[C@@H](O)[C@H](O[C@@H]8OC[C@@H](O)[C@H](O)[C@H]8O)[C@H]7O[C@@H]7O[C@H](CO)[C@@H](O)[C@H](O)[C@H]7O)[C@H](O)[C@H]6O)CC[C@]5(C)[C@H]4CC[C@]3(C)[C@H]1[C@@H]2C = 92 nM
• CC1(C)CCC2=C(O1)c1ccccc1C(=O)C2=O = 230 nM
• CCCSc1ccc2nc(NC(=O)OC)[nH]c2c1 = 240 nM
• COC(=O)Nc1nc2ccc(C(=O)c3ccccc3)cc2[nH]1 = 180 nM

---

test system: human tumor cell lines; test: MTT proliferation assay and phase contrast images, cell line not given (FIGS. 5-10); assay type: cell-based; conditions: treated cells vs. DMSO control, cell line not named
Value kind: cell count (phase contrast images)

* CC(C)c1c(C(=O)Nc2ccccc2)c(-c2ccccc2)c(-c2ccc(F)cc2)n1CC[C@@H](O)C[C@@H](O)CC(=O)O | decreased the cell count
* COC(=O)[C@H]1[C@H]2C[C@H]3c4[nH]c5cc(OC)ccc5c4CCN3C[C@H]2C[C@@H](OC(=O)c2cc(OC)c(OC)c(OC)c2)[C@@H]1OC | decreased the cell count
* CC(C)(C)c1ccc(C(O)CCCN2CCC(C(O)(c3ccccc3)c3ccccc3)CC2)cc1 (stereo not drawn) | reduced the cell count
* C(=C\c1ccccc1)/CN1CCN(C(c2ccccc2)c2ccccc2)CC1 | decreased the cell count
* CN[C@H]1CC[C@@H](c2ccc(Cl)c(Cl)c2)c2ccccc21 | reduced the cell count
* Clc1ccccc1C(c1ccccc1)(c1ccccc1)n1ccnc1 | decreased the cell count
